This section presents compounds with their documented log P values.
Experiment: log P
Assay type: physicochemical
Text: The term “log P” refers to the partition coefficient of a compound. The partition coefficient is the ratio of concentrations of un-ionized compound in each of two solution phases, for example, octanol and water. To measure the partition coefficient of ionizable solute compounds, the pH of the aqueous phase is adjusted such that the predominant form of the compound is un-ionized. […]
attribute.measured: log P

CC(C)=CC(CC(C)(C)c1ccc(C(F)(F)F)cc1)N1CCN(C(=O)c2ccccc2)CC1 (stereo not drawn) | 6.46
CC(C)=CC(CC(C)(C)c1ccc(Cl)cc1)N1CCC(O)CC1 (stereo not drawn) | 4.58
CC(C)=CC(CC(C)(C)c1ccc(C(F)(F)F)cc1)N1CCC(O)(c2ccccc2)CC1 (stereo not drawn) | 6.5
COc1cc(CCC(C)(C)N2Cc3cccc(C(=O)N4CCN(C(=O)CN)CC4)c3C2)ccc1O | 1.81
COCCNC(C=C(C)C)C(C)(C)Oc1ccccc1 (stereo not drawn) | 3.52
CC(C)=CC(CCc1ccc(C)cc1)N1CCC(C2CCOCC2)CC1 (stereo not drawn) [Compound 64] | 3.52
CC(CC(C)(C)c1ccc(Cl)cc1)N1CCC(O)CC1 (stereo not drawn) | 3.57
CC(C)=CC(CC(C)(C)c1ccc(C(F)(F)F)cc1)N1CCC(N2CCOCC2)CC1 (stereo not drawn) | 5.34
CC(C)=CC(CCc1ccc(Cl)cc1)N1CCC(C2CCOCC2)CC1 (stereo not drawn) | 5.72
CC(C)=CC(CC(C)(C)c1ccc(Cl)cc1)N1CCN(C(=O)C2CC2)CC1 (stereo not drawn) | 5.11
COC(=O)[C@H]1CCCN1CCC(C)(C)c1ccccc1 | 3.48
COC1CCN(C(C=C(C)C)CC(C)(C)c2ccc(Cl)cc2)CC1 (stereo not drawn) | 5.22
CC(C)=CC(CC(C)(C)c1ccc(C)cc1)N1CCN(CC(C)C)CC1 (stereo not drawn) | 6.26
COC1CCN(C(C)CC(C)(C)c2ccc(Cl)cc2)CC1 (stereo not drawn) | 4.22
COc1ccc(C(C)(C)CC(C=C(C)C)N(C)CCCC2CCOCC2)cc1 (stereo not drawn) | 5.73
CC(C)(CC(NCC1CCOCC1)c1ccccc1)c1ccc(Cl)cc1 (stereo not drawn) | 5.66
CC(C)(CCN1CCC(C)(c2ccccc2)CC1)c1ccccc1 | 5.81
CC(C)=CC(CC(C)(C)c1ccc(F)cc1)N1CCC(CCOC(C)C)CC1 (stereo not drawn) | 6.36
COc1ccc(C(C)(C)CC(c2ccccc2)N2CCOCC2)cc1 (stereo not drawn) | 4.64
CC(C)=CC(CC(C)(C)c1ccc(Cl)cc1)N1CCC(C(C)C)CC1 (stereo not drawn) | 7.13
CC(C)=CC(CC(C)(C)c1ccc(C(F)(F)F)cc1)N1CCC(CCOC(C)C)CC1 (stereo not drawn) | 7.1
CCOC(=O)C1CCN(C(C=C(C)C)CC(C)(C)c2ccc(C(F)(F)F)cc2)CC1 (stereo not drawn) | 6.11
CCOC(=O)C1CCN(C(C=C(C)C)CC(C)(C)c2ccc(Cl)cc2)CC1 (stereo not drawn) | 5.84
CC(C)=CC(CC(C)(C)c1ccc(F)cc1)N1CCC(Oc2ccccc2)CC1 (stereo not drawn) | 6.45
COC[C@H]1CCCN1C(C=C(C)C)CC(C)(C)c1ccc(F)cc1 (stereo partly drawn) | 5.22
C[C@@H]1CCN(CCC(C)(C)c2ccc(F)cc2)C1 | 4.15
COCCCC1CCN(C(C=C(C)C)CC(C)(C)c2ccc(N3CCOCC3)cc2)CC1 (stereo not drawn) | 5.78
CC(C)=CC(CC(C)(C)c1ccc(C(F)(F)F)cc1)N1CCC(C)(O)CC1 (stereo not drawn) | 5.13
CC(=O)N1CCN(C(C=C(C)C)CC(C)(C)c2ccc(C(F)(F)F)cc2)CC1 (stereo not drawn) | 4.61
CC(C)=C[C@H](CC(C)(C)c1ccc(C(F)(F)F)cc1)N1CCC(C)(O)CC1 | 5.13
CC(C)=CC(CCc1ccc(C)cc1)N1CCOCC1 (stereo not drawn) | 4.36
CC(C)=CC(CC(C)(C)c1ccc(C(F)(F)F)cc1)N1CC[C@H](O)C1 (stereo partly drawn) | 4.79
CCOC(=O)C1CCN(C(C=C(C)C)CC(C)(C)c2ccccc2)CC1 (stereo not drawn) | 5.23
CC(C)=CC(CC(C)(C)c1ccc(Cl)cc1)N1CCC(CCO)CC1 (stereo not drawn) | 5.41
CC(C)=CC(CC(C)(C)c1ccc(Cl)cc1)N1CCC(F)CC1 (stereo not drawn) | 5.47
COC[C@H]1CCCN1C(C)CC(C)(C)c1ccc(Cl)cc1 (stereo partly drawn) [Compound 84] | 4.67

====

log P by entry:
Assay: log P
Assay type: physicochemical
Text: The term “log P” refers to the partition coefficient of a compound. The partition coefficient is the ratio of concentrations of un-ionized compound in each of two solution phases, for example, octanol and water. To measure the partition coefficient of ionizable solute compounds, the pH of the aqueous phase is adjusted such that the predominant form of the compound is un-ionized. […]
attribute.measured: log P

CC(C)=C[C@H](CC(C)(C)c1ccc(F)cc1)N1CCC[C@@H]1CO | 4.57
CC(C)=CC(CC(C)(C)c1ccc(Cl)cc1)N1CCC(N2CCCC2)CC1 (stereo not shown) | 5.69
CC(C)=CC(CC(C)(C)c1ccc(Cl)cc1)N1CCN(S(C)(=O)=O)CC1 (stereo not shown) | 3.83
CC(C)=CC(CC(C)(C)c1ccc(OC(C)C)cc1)N1CCC(O)CC1 (stereo not shown) | 4.59
CC(C)(CCN1CC[C@@H](O)C1)c1ccc(C(F)(F)F)cc1 | 3.37
COC(=O)C1CCN(CCC(C)(C)c2ccc(F)cc2)CC1 | 3.6
CC(C)=CC(NCC(C)C)C(C)(C)Oc1ccccc1 (stereo not shown) | 4.81
CC(CC(C)(C)c1ccc(Cl)cc1)N1CCC(O)C1 (stereo not shown) | 3.51
CC(C)=CC(CC(C)(C)c1ccc(S(C)(=O)=O)cc1)NCC1CCOCC1 (stereo not shown) | 3.54
CC(C)=C[C@@H](CC(C)(C)c1ccc(C(F)(F)F)cc1)N1CCC(C)(O)CC1 | 5.13
CC(CC(C)(C)c1ccc(Cl)cc1)N1CCCC1CO (stereo not shown) | 4.03
COc1ccc(C(C)(C)CC(C=C(C)C)NCCC2CCOCC2)cc1 (stereo not shown) | 4.9
CC(C)=CC(CC(C)(C)c1ccc(Cl)cc1)N1CCN(C(=O)c2ccccc2)CC1 (stereo not shown) | 6.19
CCOC(=O)C1CCN(CCC(C)(C)c2ccc(F)cc2)CC1 | 3.95
COC[C@H]1CCCN1CCC(C)(C)c1ccc(C(F)(F)F)cc1 | 4.53
CCOC(=O)C1CCN(CCC(C)(C)c2ccccc2)CC1 | 3.81
CC(C)=CC(CC(C)(C)c1ccc(Cl)cc1)N1CCC(c2ccnc(N(C)C)c2)CC1 (stereo not shown) | 7.02
CC(C)=CC(CCc1ccc(F)cc1)N1CCCCC1 (stereo not shown) | 5.06
CC(C)=CC(CC(C)(C)c1ccc(Cl)cc1)N1CCNC(=O)C1 (stereo not shown) | 3.98

====

Listing: Ki of selected compounds
target: Sigma-2 receptors on membranes from rat cerebral cortex (Rattus norvegicus (Rat), UniProt Q5U3Y7); experiment: Competitive Radioligand Binding Assay 1, Sigma-2 binding ([3H]DTG displacement with (+)pentazocine mask); settings: sigma-2 receptor affinity; read-out: S2 Ki
Sequence (Q5U3Y7 whole entry): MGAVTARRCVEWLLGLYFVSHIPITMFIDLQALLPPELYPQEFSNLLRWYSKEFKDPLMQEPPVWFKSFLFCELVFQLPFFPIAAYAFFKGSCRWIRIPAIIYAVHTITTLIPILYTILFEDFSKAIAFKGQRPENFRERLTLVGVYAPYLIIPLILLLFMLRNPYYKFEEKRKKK
attribute.measured: Ki (nM)

CC(C)=CC(CC(C)(C)c1ccc(C(F)(F)F)cc1)N1CCC(CO)CC1 (centres unmarked) [Compound 35] | 39
CC(C)=CC(CCc1ccc(F)cc1)N1CCC(C2CCOCC2)CC1 (centres unmarked) [Compound 65] | 270
CC(C)=CC(CC(C)(C)c1ccc(Cl)cc1)N1CCC(F)CC1 (centres unmarked) [Compound 55] | 120
CC(C)(CCN1CCC(C2CCOCC2)CC1)c1ccc(C(F)(F)F)cc1 [Compound 1] | 0.2
CC(C)=CC(CCc1ccc(F)cc1)N1CCC(C2CCOCC2)CC1 (centres unmarked) [Compound 21] | 6.2

====

target: Sigma-2 receptors on membranes from rat cerebral cortex (Rattus norvegicus (Rat), UniProt Q5U3Y7)
attribute.measured: Ki (nM)

COC[C@H]1CCCN1C(C)CC(C)(C)c1ccc(Cl)cc1 (stereo partly drawn) | 1000
CC(CC(C)(C)c1ccc(F)cc1)N1CCC(CO)CC1 (stereo not drawn) | 6
COCCOCCC1CCN(C(C=C(C)C)CC(C)(C)c2ccc(C(F)(F)F)cc2)CC1 (stereo not drawn) | 44
CC(C)=CC(CC(C)(C)c1ccc(C(F)(F)F)cc1)N1CCC(OC(C)C)CC1 (stereo not drawn) | 79
CC(C)=CC(CC(C)(C)c1ccc(C)cc1)N1CCC(C2CCOCC2)CC1 (stereo not drawn) | 0.76
CC(C)=CC(CCc1ccc(C)cc1)N1CCC(C2CCOCC2)CC1 (stereo not drawn) | 268
CC(CC(C)(C)c1ccc(F)cc1)N1CCC(O)CC1 (stereo not drawn) | 10
COC1CCN(CCC(C)(C)c2ccc(Cl)cc2)CC1 | 2.1
CC(CC(C)(C)c1ccc(C(F)(F)F)cc1)N1CCC(CCO)CC1 (stereo not drawn) | 0.6

The values you see were collected from patent US11214540B2.
